Where these numbers come from: the supplement of paper PMC10567573

protein stability index values for the variants below.
B1: SCNN1D (parent)
chain: FLGHHSFSVRPGTEATISIREDEV

variants of: B1; assay: protein stability index of a GFP-peptide fusion (GPS, HEK-293T) (PSI 1-6); higher = more stable; conditions: c terminus: a fixed tail appended;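 further: lentivirally expressed fusions sorted by FACS into six bins by GFP to DsRed ratio, PSI derived from sequencing read proportions per bin multiplied by bin number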
Returns: the value as a bare number; no unit string appended.

Here are 3 variants together with their reported answers.
[
  {
    "mutant-id": "F1C",
    "protein stability index": 3.57
  },
  {
    "mutant-id": "T16E",
    "protein stability index": 1.62
  },
  {
    "mutant-id": "H4Q",
    "protein stability index": 1.32
  }
]

Entry under review: `S18A` . Reported protein stability index?
1.6

Entry under review: `D22A` . Reported protein stability index?
1.89

Entry under review: `P11V` . Reported protein stability index?
1.53

Entry under review: `V24F` . Reported protein stability index?
1.76

Entry under review: `I19W` . Reported protein stability index?
1.32

Entry under review: `L2N` . Reported protein stability index?
3.15

Entry under review: `I17A` . Reported protein stability index?
2.44

Entry under review: `T13K` . Reported protein stability index?
2.37
